- systemName: recombinant human CK2 (RRββ-holoenzyme) (Homo sapiens)
- Sequence (P68400 whole entry): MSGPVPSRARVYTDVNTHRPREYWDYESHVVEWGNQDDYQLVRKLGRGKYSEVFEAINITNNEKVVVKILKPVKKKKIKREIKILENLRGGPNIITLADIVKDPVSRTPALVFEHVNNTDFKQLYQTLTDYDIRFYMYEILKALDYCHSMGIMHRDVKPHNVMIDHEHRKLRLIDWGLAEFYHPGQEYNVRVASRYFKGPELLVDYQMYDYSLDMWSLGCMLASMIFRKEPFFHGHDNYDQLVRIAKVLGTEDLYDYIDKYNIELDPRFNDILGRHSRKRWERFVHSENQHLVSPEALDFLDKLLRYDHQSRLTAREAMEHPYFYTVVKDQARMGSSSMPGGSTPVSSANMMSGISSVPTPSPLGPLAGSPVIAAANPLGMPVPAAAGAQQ
- Sequence (P67870 whole entry partner): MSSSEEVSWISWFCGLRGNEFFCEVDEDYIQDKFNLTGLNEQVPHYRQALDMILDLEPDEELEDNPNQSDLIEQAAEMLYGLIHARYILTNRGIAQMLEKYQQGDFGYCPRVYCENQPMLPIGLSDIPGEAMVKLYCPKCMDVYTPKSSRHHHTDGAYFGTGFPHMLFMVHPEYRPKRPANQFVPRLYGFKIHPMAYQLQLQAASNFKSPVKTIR
- runDescription: CK2 Kinase Assay (33P-ATP, filter plate)
- statedConditions: final ATP concentration 15 μM, 10 min at 30° C., eight concentrations; read-out: protein kinase CK2 IC50
readoutLabel: IC50
Give the value; after it, write the unit.

Record "O=C(O)c1cc2c([nH]c3cc(O)ccc32)c(Nc2cccc(Cl)c2)n1" . Reported IC50: 165 nM

====

- System: MIAPaCa-2 (pancreas)
- runDescription: In vitro cytotoxic activity assay (MTT), MIAPaCa-2
- Format: cell-based
- statedConditions: Homo sapiens, MIA PaCa-2; MIAPaCa-2 (pancreas) cells, exposed for 96 hours; read-out: IC50, 50% inhibition of cell proliferation
readoutLabel: IC50 (µM)
Give the value, in units of µM, as a plain number.

Record "O=C(O)c1cc2c([nH]c3cc(O)ccc32)c(Nc2cccc(Cl)c2)n1" . Reported IC50: 3.3
